Cited source for all entries: paper PMC9911399

target-system: T1, RBFOX1 RRM RbFoxmut (Fox-RRM*) (Homo sapiens, UniProt Q9NWB1 109-208, R118D;E147R;N151S;E152T)
T1 sequence: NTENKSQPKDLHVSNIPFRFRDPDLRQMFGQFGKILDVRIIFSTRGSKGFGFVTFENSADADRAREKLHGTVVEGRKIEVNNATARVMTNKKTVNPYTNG
assay-comment: EMSA; HiTS-Eq, 1 nM pool, 10 min; buffer printed only for the single-RNA assays: 10 mM Tris pH 7.5, 150 mM NaCl, 3.4 mM EDTA, 0.001% NP-40, 30 C
assay-context: tags: His6 N-terminal (pET28a); label: 5' 32P
Over roughly 16,000 sequences, “ka relative to ugcaugu” has its median near 0.096; the highest 2% begin near 0.35. The sample as a whole holds a higher share of the highest values than the screen did.
This section presents binders with their documented binding signal values.

In the examples that follow, each entry is paired with its recorded binding signal.
1. UUCGUCU (DNA:RNA) RNA: GGGAGACCGGAAUUCAGAUUGUCCUUCGUCUUUAAAUCCCGUCGUAGCCACCA DNA 1: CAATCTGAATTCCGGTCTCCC DNA 2: TGGTGGCTACGACGGGATT
0.0697 KA relative to UGCAUGU
2. GUGUCCA (DNA:RNA) RNA: GGGAGACCGGAAUUCAGAUUGUCCGUGUCCAUUAAAUCCCGUCGUAGCCACCA DNA 1: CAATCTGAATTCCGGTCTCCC DNA 2: TGGTGGCTACGACGGGATT
0.121 KA relative to UGCAUGU
3. CCCGAUC (DNA:RNA) RNA: GGGAGACCGGAAUUCAGAUUGUCCCCCGAUCUUAAAUCCCGUCGUAGCCACCA DNA 1: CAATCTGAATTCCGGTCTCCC DNA 2: TGGTGGCTACGACGGGATT
0.0576 KA relative to UGCAUGU

Kindly consider the entry below.
Q) # binding signal lookup, item AGCAGCG (DNA:RNA) RNA: GGGAGACCGGAAUUCAGAUUGUCCAGCAGCGUUAAAUCCCGUCGUAGCCACCA DNA 1: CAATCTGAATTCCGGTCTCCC DNA 2: TGGTGGCTACGACGGGATT
A) 0.113 KA relative to UGCAUGU
